# target.desc: NP (Influenza A virus, UniProt P15682)
# Sequence (P15682 whole entry): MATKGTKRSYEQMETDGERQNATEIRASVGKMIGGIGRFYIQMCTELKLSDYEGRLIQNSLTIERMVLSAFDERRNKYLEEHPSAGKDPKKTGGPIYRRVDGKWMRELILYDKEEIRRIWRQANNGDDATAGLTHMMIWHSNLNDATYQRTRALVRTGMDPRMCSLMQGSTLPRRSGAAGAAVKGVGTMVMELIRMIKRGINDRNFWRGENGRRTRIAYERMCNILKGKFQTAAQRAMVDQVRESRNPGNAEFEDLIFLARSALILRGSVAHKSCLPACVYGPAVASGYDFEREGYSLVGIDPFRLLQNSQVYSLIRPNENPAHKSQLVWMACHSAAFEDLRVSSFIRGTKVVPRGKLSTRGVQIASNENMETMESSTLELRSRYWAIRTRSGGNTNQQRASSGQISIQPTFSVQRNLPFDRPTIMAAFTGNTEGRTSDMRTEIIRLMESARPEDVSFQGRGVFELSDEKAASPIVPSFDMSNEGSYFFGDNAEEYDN
Catalogue of pKd readings, one per entry.
A value of pKd is the negative decimal logarithm of a concentration given in moles per litre.

Returns the measured pKd for the input compound. Input: Cc1onc(-c2ccccc2)c1C(=O)N1CCN(c2ccc([N+](=O)[O-])cc2Cl)CC1 [nucleozin, reference compound]
5.01

Returns the measured pKd for the input compound. Input: O=C(O)CCC(=O)Nc1nc2n(n1)C(c1ccc(Cl)cc1)C=C(c1ccc(Cl)cc1)N2 (stereo not drawn)
4.42

Returns the measured pKd for the input compound. Input: O=C(O)CCCC(=O)Nc1nc2n(n1)[C@H](c1ccccc1)C=C(c1ccc(Cl)cc1)N2
4.16

Returns the measured pKd for the input compound. Input: O=C(O)CCC(=O)N1N=C(c2c(O)nc3ccc(Br)cc3c2-c2ccccc2)CC1c1ccco1 (stereo not drawn)
3.82

Returns the measured pKd for the input compound. Input: COc1ccc(C2CC(c3c(-c4ccccc4)c4cc(Cl)ccc4[nH]c3=O)=NN2C(=O)CCC(=O)O)cc1 (stereo not drawn)
4.11

Returns the measured pKd for the input compound. Input: COc1ccc([C@H]2CC(c3c(-c4ccccc4)c4cc(Br)ccc4[nH]c3=O)=NN2C(=O)CCC(=O)O)cc1
3.68

Reference source: paper PMC12525657
